Entries with reported IC50 on UniProtKB O76074
Your answer is read as nM, so omit the unit and give the number.

COc1ccc2nc(-n3ccnc3)nc(NCc3ccco3)c2c1 : 72
CCOC(=O)CCCNc1nc(-c2ccccc2)nc2ccccc12 : 4300
c1coc(CNc2nc(-n3ccnc3)nc3ccccc23)c1 : 630
Fc1ccc2nc(-c3cccnc3)nc(NCc3ccccc3)c2c1 : 165
c1ccc(-c2nc(NCC3CCCO3)c3ccccc3n2)cc1 (configuration not stated) : 8800

Returns the measured IC50 for the input compound. Input: Clc1ccccc1Nc1nc(-c2ccccc2)nc2ccccc12
5500

Given the entry c1ccc(-c2nc(NC3CCCC3)c3ccccc3n2)cc1 , report its measured IC50.
2400

May I ask what IC50 has been recorded for Cc1ccc2nc(-c3cccnc3)nc(NCc3ccccc3)c2c1 ?
105

// IC50 lookup, key: c1ccc(CNc2nc(-c3cccs3)nc3ccccc23)cc1
720

Which IC50 value belongs to COc1ccc2nc(-n3ccnc3)nc(NCc3ccccc3)c2c1.Cl.Cl ?
16

Give the measured IC50 of c1ccc(Nc2nc(-c3cccs3)nc3ccccc23)cc1 .
2400

Requested field: IC50. Item: c1ccc(-c2nc(NCc3cccnc3)c3ccccc3n2)cc1
8600

----------
TARGET_OF_ASSAY: Phosphodiesterase 4 (Rattus norvegicus, UniProt P14270+P14646+P14644+P54748)
PROTOCOL_DESCRIPTION: Inhibition of rat kidney Phosphodiesterase 4
Assay type: protein assay
Measured IC50, listed per entry for reference.
// units = µM; emit number, no label

Solved entries (count: 3):
c1ccc(CNc2nc(-c3ccccc3)nc3ccccc23)cc1 : 8.2
c1ccc(CNc2nc(-c3cccs3)nc3ccccc23)cc1 : 7.6
c1ccc(CNc2nc(-c3ccncc3)nc3ccccc23)cc1 : 7.5

Given the compound c1ccc(CNc2nc(-c3cccnc3)nc3ccccc23)cc1 , what is its reported IC50?
9

# IC50 lookup, item c1ccc(CNc2nc(-n3ccnc3)nc3ccccc23)cc1
3.1

Give its IC50 value. Item: COc1ccc2nc(-n3ccnc3)nc(NCc3ccccc3)c2c1.Cl.Cl
3.3

----------
Species on record: Rattus norvegicus
PROTOCOL_DESCRIPTION: Ex vivo inhibition of Thromboxane B2 production in A-23,187-Induced Rat Whole Blood
Format: functional
This section presents molecules with their documented ED50 values.
Dear colleague, please return just the value in mg/kg, with no unit written.

Examples from the recorded data:
COc1ccc2nc(-n3ccnc3)nc(NCc3ccccc3)c2c1.Cl.Cl : 2.6
c1ccc(CNc2nc(-n3ccnc3)nc3ccccc23)cc1 : 5.7

Query molecule follows.
If you can, please state the reported ED50 value of c1ccc(CNc2nc(-c3ccncc3)nc3ccccc23)cc1 .
11

----------
Parameter IC50: see the listing below.
TARGET_OF_ASSAY: Phosphodiesterase 3 (Homo sapiens, UniProt Q14432+Q13370)
PROTOCOL_DESCRIPTION: Inhibition of human platelet Phosphodiesterase 3

The following compounds have reported results that may help.
COc1ccc2nc(-n3ccnc3)nc(NCc3ccccc3)c2c1.Cl.Cl : 2 µM
Cl.Cl.Clc1ccc2nc(-n3ccnc3)nc(NCc3ccccc3)c2c1 : > 3 µM

Record lookup: for Phosphodiesterase 3 (Homo sapiens, UniProt Q14432+Q13370), what IC50 belongs to CCCOc1ccccc1-c1nc2[nH]nnc2c(=O)[nH]1 ?
660 µM

Request: IC50, test system Phosphodiesterase 3 (Homo sapiens, UniProt Q14432+Q13370), entry c1ccc(CNc2nc(-c3cccs3)nc3ccccc23)cc1
> 100 µM

Form: Entry = c1ccc(CNc2nc(-c3ccncc3)nc3ccccc23)cc1 | System = Phosphodiesterase 3 (Homo sapiens, UniProt Q14432+Q13370) | IC50 = ____
> 100 µM

Lab note: need IC50 with Phosphodiesterase 3 (Homo sapiens, UniProt Q14432+Q13370) for entry Cl.Cl.O=[N+]([O-])c1ccc2nc(-c3cccnc3)nc(NCc3ccccc3)c2c1 , please look it up.
> 3 µM

----------
The next entries give measured IC50 for cGMP-specific 3',5'-cyclic phosphodiesterase (Homo sapiens).
Quick note: give the figure in nM, leave out the unit.

c1cncc(-c2nc(NCC3CC3)c3ccccc3n2)c1 : 4400
Clc1nc(NCc2ccccc2)c2ccccc2n1 : 4600
COc1cccc(Nc2nc(-c3ccccc3)nc3ccccc23)c1 : 760

Lab note: need IC50 with cGMP-specific 3',5'-cyclic phosphodiesterase (Homo sapiens) for entry OCCCCCNc1nc(-c2ccccc2)nc2ccccc12 , please look it up.
15000

What measured IC50 is associated with c1ccc(CNc2nc(-c3ccncc3)nc3ccccc23)cc1 on cGMP-specific 3',5'-cyclic phosphodiesterase (Homo sapiens)?
310

Lookup: IC50 / cGMP-specific 3',5'-cyclic phosphodiesterase (Homo sapiens) / CN(Cc1ccccc1)c1nc(-c2ccccc2)nc2ccccc12
14000

Form field: IC50 recorded for c1ccc(CCNc2nc(-n3ccnc3)nc3ccccc23)cc1 with cGMP-specific 3',5'-cyclic phosphodiesterase (Homo sapiens) (enter value)
860

cGMP-specific 3',5'-cyclic phosphodiesterase (Homo sapiens) / IC50 / Clc1ccc(CNc2nc(-c3ccccc3)nc3ccccc23)cc1 : value?
740

What measured IC50 is associated with c1csc(CNc2nc(-n3ccnc3)nc3ccccc23)c1 on cGMP-specific 3',5'-cyclic phosphodiesterase (Homo sapiens)?
210

----------
TARGET_OF_ASSAY: cGMP-dependent 3',5'-cyclic phosphodiesterase (Rattus norvegicus)
Sequence (Q01062 whole entry): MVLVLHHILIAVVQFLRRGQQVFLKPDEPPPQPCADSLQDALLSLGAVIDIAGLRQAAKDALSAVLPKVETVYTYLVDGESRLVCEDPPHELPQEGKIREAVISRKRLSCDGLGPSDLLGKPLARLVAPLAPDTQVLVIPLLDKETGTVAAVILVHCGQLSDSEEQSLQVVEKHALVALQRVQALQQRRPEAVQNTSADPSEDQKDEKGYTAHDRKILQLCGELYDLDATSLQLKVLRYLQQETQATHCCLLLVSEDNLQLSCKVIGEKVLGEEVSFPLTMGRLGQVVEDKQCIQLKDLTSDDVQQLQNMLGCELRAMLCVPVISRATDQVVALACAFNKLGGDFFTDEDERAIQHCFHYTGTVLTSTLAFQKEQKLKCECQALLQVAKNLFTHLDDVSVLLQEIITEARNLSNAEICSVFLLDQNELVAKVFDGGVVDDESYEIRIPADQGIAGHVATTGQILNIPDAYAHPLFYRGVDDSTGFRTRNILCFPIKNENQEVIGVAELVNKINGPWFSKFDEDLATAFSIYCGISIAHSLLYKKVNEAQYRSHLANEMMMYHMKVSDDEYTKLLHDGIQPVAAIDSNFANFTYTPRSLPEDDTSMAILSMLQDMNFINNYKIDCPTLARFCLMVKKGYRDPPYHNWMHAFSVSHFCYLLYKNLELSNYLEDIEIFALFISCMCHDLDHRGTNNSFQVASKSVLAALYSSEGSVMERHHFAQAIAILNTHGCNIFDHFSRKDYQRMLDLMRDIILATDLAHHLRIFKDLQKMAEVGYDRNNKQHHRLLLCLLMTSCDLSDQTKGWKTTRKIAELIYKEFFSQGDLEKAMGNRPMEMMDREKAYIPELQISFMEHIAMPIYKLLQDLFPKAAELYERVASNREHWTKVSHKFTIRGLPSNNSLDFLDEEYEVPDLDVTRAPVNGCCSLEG
READOUT: pIC50
Schema: pIC50 number; meaning minus log10 of the concentration expressed in molar units.

CCCOc1ccccc1-c1nc2[nH]nnc2c(=O)[nH]1 : 4.00

Attention now shifts to the item below.
Request the reported pIC50 associated with c1ccc(CNc2nc(-n3ccnc3)nc3ccccc23)cc1
4.60

----------
TARGET_OF_ASSAY: Phosphodiesterase 1 (Bos taurus, UniProt Q01061+P14100)
PROTOCOL_DESCRIPTION: Inhibition of bovine aorta Phosphodiesterase 1
Format: protein assay
READOUT: IC50 (µM)
Report the value in µM with no unit label.

c1ccc(CNc2nc(-c3ccccc3)nc3ccccc23)cc1 : 22.5

Kindly state the measured IC50 obtained for c1ccc(CNc2nc(-c3cccs3)nc3ccccc23)cc1 with Phosphodiesterase 1 (Bos taurus, UniProt Q01061+P14100).
13

Form field - read-out: IC50; system: Phosphodiesterase 1 (Bos taurus, UniProt Q01061+P14100); submitted item: COc1ccc2nc(-n3ccnc3)nc(NCc3ccccc3)c2c1.Cl.Cl
2.8

For Phosphodiesterase 1 (Bos taurus, UniProt Q01061+P14100), provide IC50 of c1ccc(CNc2nc(-c3cccnc3)nc3ccccc23)cc1 please.
21

Phosphodiesterase 1 (Bos taurus, UniProt Q01061+P14100) / IC50 / c1ccc(CNc2nc(-c3ccncc3)nc3ccccc23)cc1 : value?
7

What measured IC50 is associated with c1ccc(CNc2nc(-n3ccnc3)nc3ccccc23)cc1 on Phosphodiesterase 1 (Bos taurus, UniProt Q01061+P14100)?
14

Under Phosphodiesterase 1 (Bos taurus, UniProt Q01061+P14100): IC50 value of CCCOc1ccccc1-c1nc2[nH]nnc2c(=O)[nH]1 [ZAPRINAST] ?
68

Reference source for all entries: ChEMBL document CHEMBL1128541
